- assay-system: rhesus (Macacca Mulatta) H3 receptor (Macaca mulatta, UniProt Q865E1)
- Construct: pcDNA5/FRT/TO (Invitrogen) containing the rhesus monkey (Macacca Mulatta) 445 amino acid H3 receptor
- Sequence (Q865E1 1-445): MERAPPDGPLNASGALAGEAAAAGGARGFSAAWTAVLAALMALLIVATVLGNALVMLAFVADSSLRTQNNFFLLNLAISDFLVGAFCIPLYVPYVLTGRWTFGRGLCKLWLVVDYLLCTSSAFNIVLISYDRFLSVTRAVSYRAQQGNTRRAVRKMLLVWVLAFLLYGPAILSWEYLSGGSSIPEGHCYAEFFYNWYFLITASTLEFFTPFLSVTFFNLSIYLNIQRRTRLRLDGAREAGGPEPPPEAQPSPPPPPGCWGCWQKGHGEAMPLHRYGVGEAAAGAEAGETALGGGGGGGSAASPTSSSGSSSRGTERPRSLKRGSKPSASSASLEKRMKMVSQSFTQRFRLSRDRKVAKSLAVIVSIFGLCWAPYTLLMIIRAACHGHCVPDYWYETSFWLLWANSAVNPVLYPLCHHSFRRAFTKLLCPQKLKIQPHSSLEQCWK
- measurement-notes: Rhesus H3 radioligand binding assay ([3H]-Methylhistamine displacement, WGA SPA beads)
- Set-up: species or system rhesus monkey (Macacca Mulatta)
- condition: Table 2; stereoisomer comparison, procedure of Example 148; read-out: Affinity: ki in Rhesus H3 membrane
Where a name gives a salt, the structure may show the parent alone.
assay-metric: pKi
Would you please state pKi, meaning minus log10 of the concentration in mol/L, as a bare number?

The examples below pair each entry with its known result.
{"columns": ["compound", "assay-metric", "endpoint-result"],
 "data": [
  ["Cc1cc(N2CC[C@@H](N3CCC[C@H]3C)C2)ccc1NC(=O)c1cc(F)ccc1C [Example 12, hydrochloride]", "pKi", 6.83],
  ["Cc1cc(N2CC[C@@H](N3CCC[C@@H]3C)C2)ccc1NC(=O)c1cc(F)ccc1C [Example 11]", "pKi", 8.60],
  ["Cc1cc(N2CC[C@H](N3CCC[C@H]3C)C2)ccc1NC(=O)c1cc(F)ccc1C [Example 5]", "pKi", 6.92]
]}

What measured pKi goes with Cc1cc(N2CC[C@@H](N3CCC[C@@H]3C)C2)ccc1NC(=O)c1cc(F)ccc1C [Example 3] ?
8.14

Recorded values, source patent US8618159B2.
